Entry source: the supplement of paper PMC13380429

- Tested on: Vero E6 infected with SARS-CoV-2
- experimental_details: inhibition of SARS-CoV-2 cytopathic effect; higher = more antiviral protection, active = above 15
- condition_label: 10000 nM; 48 h
assay_metric: inhibition of SARS-CoV-2 cytopathic effect (%)
Kindly answer with a numeric value in %, unit omitted.

Here is how some compounds turned out for inhibition of SARS-CoV-2 cytopathic effect.
{"compound": "Cc1cc(OCc2nc(-c3ccccc3Cl)cs2)ccc1OCC(=O)O", "value_observed": -2.32}
{"compound": "C[C@H]1[C@H](NC(=O)/C(=N\\OC(C)(C)C(=O)O)c2csc(N)n2)C(=O)N1S(=O)(=O)O", "value_observed": 0.92}
{"compound": "COC(=O)C1=C(C)NC(C)=C(C(=O)OC)C1c1ccccc1[N+](=O)[O-]", "value_observed": 4.43}
{"compound": "CC(/C=C/C(=O)NO)=C\\[C@@H](C)C(=O)c1ccc(N(C)C)cc1", "value_observed": -31.1}
{"compound": "CCN(CC)CCNC(=O)c1cc(Cl)c(N)cc1OC [metoclopramide]", "value_observed": -1.37}
{"compound": "COc1cccc2c1C(=O)c1c(O)c3c(c(O)c1C2=O)C[C@@](O)(C(=O)CO)C[C@@H]3O[C@H]1C[C@H](N2CCO[C@H](OC)C2)[C@H](O)[C@H](C)O1", "value_observed": -7.13}
{"compound": "CCN(CC)CCOC(=O)C(Cc1cccc2ccccc12)CC1CCCO1 (mixture of isomers)", "value_observed": -1.13}

Next up:
Param readout = inhibition of SARS-CoV-2 cytopathic effect; param system = Vero E6 infected with SARS-CoV-2; param query = COc1ccccc1OCC(O)COC(N)=O (stereo not drawn) ; response: value 1.06

---

- System: Vero E6 infected with SARS-CoV-2
- experimental_details: morphology score (similarity to uninfected cells); higher = more like uninfected cells
- condition_label: 24 h
assay_metric: morphology score
Please reply with the number alone, leaving off any unit.

Here is how some compounds turned out for morphology score.
{"compound": "CCCCCCC[N+](CC)(CC)CCCCc1ccc(Cl)cc1 [clofilium] (10 µM)", "assay_metric": "morphology score", "value_observed": 0.0344}
{"compound": "CCCCCCc1ccc(O)cc1O [hexylresorcinol] (10 µM)", "assay_metric": "morphology score", "value_observed": 0.199}
{"compound": "COc1ncc(-c2ccc3nccc(-c4ccnnc4)c3c2)cc1NS(=O)(=O)c1ccc(F)cc1F (0.833333 µM)", "assay_metric": "morphology score", "value_observed": -0.0933}
{"compound": "CCCNC(C)(C)COC(=O)c1ccccc1 [meprylcaine] (10 µM)", "assay_metric": "morphology score", "value_observed": 0.0721}
{"compound": "CN[C@H]1CN(c2ccc3c(=O)c(C(=O)O)cn(-c4nccs4)c3n2)C[C@@H]1OC [voreloxin] (0.833333 µM)", "assay_metric": "morphology score", "value_observed": 0.068}

What does the data say about its morphology score? Entry: C#C[C@]1(OC(C)=O)CC[C@H]2[C@@H]3CCC4=CC(=O)CC[C@@H]4[C@H]3CC[C@@]21C [norethindrone-acetate] (10 µM) -0.146

Record: COc1ccc([C@@H]2CC(=O)c3c(O)cc(O[C@@H]4O[C@H](CO)[C@@H](O)[C@H](O)[C@H]4O[C@@H]4O[C@@H](C)[C@H](O)[C@@H](O)[C@H]4O)cc3O2)cc1O [neohesperidin] (10 µM) 0.00505
